# System: Plasmodium falciparum
# Assay Procedure: Antimalarial activity against chloroquine-resistant Plasmodium falciparum FcB1/Columbia infected in human erythrocytes assessed as reduction in [3H]-hypoxanthine incorporation pretreated for 24 hrs followed by [3H]-hypoxanthine addition measured after 24 hrs by liquid scintillation counting method
# Format: functional, organism-based
Property Name: IC50 (µM)
Reply with just the number (in µM).

*Q* Param item = C/C=C1/CN2CCc3c([nH]c4ccccc34)[C@@H]2C[C@@H]1[C@H](Cc1c[n+]2c(c3[nH]c4ccccc4c13)C[C@@H]1C(C(=O)OC)=CO[C@@H](C)[C@@H]1C2)C(=O)OC ; retrieve measured IC50.
*A* 2.6

*Q* Proceed to C/C=C1/CN2CCc3c([nH]c4ccc(O)cc34)[C@@H]2C[C@@H]1CCO
*A* 99

*Q* Proceed to C/C=C1/C[n+]2cc(C[C@H](C(=O)OC)[C@H]3C[C@H]4c5[nH]c6ccccc6c5CCN4C/C3=C/C)c3c([nH]c4ccccc43)c2C[C@@H]1CCO
*A* 9.5

*Q* Proceed to C/C=C1/C[n+]2ccc3c([nH]c4ccccc43)c2C[C@@H]1CCO
*A* 19.5

// data source = ChEMBL document CHEMBL4610067
